Provide the reported IC50 of each item.
- MEASURED_TARGET: C-Raf (Homo sapiens (Human), UniProt P04049)
- Sequence (P04049 whole entry): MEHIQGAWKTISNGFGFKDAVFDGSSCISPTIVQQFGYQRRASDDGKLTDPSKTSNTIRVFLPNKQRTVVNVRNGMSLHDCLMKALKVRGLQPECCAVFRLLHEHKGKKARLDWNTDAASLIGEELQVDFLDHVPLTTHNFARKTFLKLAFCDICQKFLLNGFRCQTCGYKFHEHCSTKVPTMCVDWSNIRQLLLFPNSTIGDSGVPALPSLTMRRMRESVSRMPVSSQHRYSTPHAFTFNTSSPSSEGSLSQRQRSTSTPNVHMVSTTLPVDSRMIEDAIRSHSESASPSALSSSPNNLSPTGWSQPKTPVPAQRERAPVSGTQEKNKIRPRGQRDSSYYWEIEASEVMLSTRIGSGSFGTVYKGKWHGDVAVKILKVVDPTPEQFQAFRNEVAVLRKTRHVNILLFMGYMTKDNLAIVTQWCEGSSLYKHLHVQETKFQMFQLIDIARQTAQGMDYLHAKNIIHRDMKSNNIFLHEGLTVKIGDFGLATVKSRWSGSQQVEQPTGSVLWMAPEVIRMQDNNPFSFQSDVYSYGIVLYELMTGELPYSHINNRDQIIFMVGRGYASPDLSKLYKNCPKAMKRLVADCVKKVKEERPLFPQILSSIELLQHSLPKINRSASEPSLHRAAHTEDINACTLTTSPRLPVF
- MEASUREMENT_DESCRIPTION: Raf kinase assay (C-Raf), [33P] incorporation into MEK1(K97R)
- Format: biochemical
Please state the figure in nM; there is no need to write the unit.

Ask | Would you kindly share the measured IC50 for `COc1ccc(-c2ccc3nccc(Nc4cccc5[nH]ncc45)c3c2)cc1F` ?
Reply | 619

Ask | Would you kindly share the measured IC50 for `O=[N+]([O-])c1cccc(-c2ccc3ncnc(Nc4cccc5[nH]ncc45)c3c2)c1` ?
Reply | 1610

Ask | Would you kindly share the measured IC50 for `Fc1ccc(-c2ccc3ncnc(Nc4cccc5[nH]ncc45)c3c2)cc1Cl` ?
Reply | 1220

Ask | Would you kindly share the measured IC50 for `COc1cc(-c2ccc3ncnc(Nc4ccc(Cl)cc4F)c3c2)ccc1O` ?
Reply | 1250

Ask | Would you kindly share the measured IC50 for `COc1cccc(Nc2ncnc3ccc(-c4ccc(O)c(OC)c4)cc23)c1` ?
Reply | 1390

Ask | Would you kindly share the measured IC50 for `CCCS(=O)(=O)Nc1cccc(-c2ccc3nccc(Nc4cccc5[nH]ncc45)c3c2)c1` ?
Reply | 439
